Molecular target: T1, TNFR1 (Homo sapiens, UniProt P19438)
T1 chain: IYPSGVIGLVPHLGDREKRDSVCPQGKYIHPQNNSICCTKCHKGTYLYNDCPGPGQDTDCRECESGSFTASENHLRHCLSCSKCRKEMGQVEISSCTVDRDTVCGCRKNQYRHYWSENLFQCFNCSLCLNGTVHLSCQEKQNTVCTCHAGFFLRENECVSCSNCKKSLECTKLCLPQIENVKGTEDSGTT
Assay: yeast display SC50
The following binders are listed with their measured apparent Kd (screen) values.

{"Binder": "E26D (designed binder) SMEEEVEKAAKEYEKKKKEAIEKHLDKLKAKDKEAAERFLKELEEAAKEYAKDEAKTMSEEEAKRRAKKYKEKVLLSELSEEEQKEIKEAEEKLVRTILKYVEEAAK", "apparent Kd (screen)": "0.446 nM"}
{"Binder": "E5A (designed binder) SMEEAVEKAAKEYEKKKKEAIEKHLEKLKAKDKEAAERFLKELEEAAKEYAKDEAKTMSEEEAKRRAKKYKEKVLLSELSEEEQKEIKEAEEKLVRTILKYVEEAAK", "apparent Kd (screen)": "0.593 nM"}
{"Binder": "A105K (designed binder) SMEEEVEKAAKEYEKKKKEAIEKHLEKLKAKDKEAAERFLKELEEAAKEYAKDEAKTMSEEEAKRRAKKYKEKVLLSELSEEEQKEIKEAEEKLVRTILKYVEEKAK", "apparent Kd (screen)": "1.86 nM"}
{"Binder": "V102N (designed binder) SMEEEVEKAAKEYEKKKKEAIEKHLEKLKAKDKEAAERFLKELEEAAKEYAKDEAKTMSEEEAKRRAKKYKEKVLLSELSEEEQKEIKEAEEKLVRTILKYNEEAAK", "apparent Kd (screen)": "0.446 nM"}
{"Binder": "L75I (designed binder) SMEEEVEKAAKEYEKKKKEAIEKHLEKLKAKDKEAAERFLKELEEAAKEYAKDEAKTMSEEEAKRRAKKYKEKVILSELSEEEQKEIKEAEEKLVRTILKYVEEAAK", "apparent Kd (screen)": "0.79 nM"}
{"Binder": "A30C (designed binder) SMEEEVEKAAKEYEKKKKEAIEKHLEKLKCKDKEAAERFLKELEEAAKEYAKDEAKTMSEEEAKRRAKKYKEKVLLSELSEEEQKEIKEAEEKLVRTILKYVEEAAK", "apparent Kd (screen)": "0.869 nM"}
{"Binder": "A106V (designed binder) SMEEEVEKAAKEYEKKKKEAIEKHLEKLKAKDKEAAERFLKELEEAAKEYAKDEAKTMSEEEAKRRAKKYKEKVLLSELSEEEQKEIKEAEEKLVRTILKYVEEAVK", "apparent Kd (screen)": "2.73 nM"}
{"Binder": "A30T (designed binder) SMEEEVEKAAKEYEKKKKEAIEKHLEKLKTKDKEAAERFLKELEEAAKEYAKDEAKTMSEEEAKRRAKKYKEKVLLSELSEEEQKEIKEAEEKLVRTILKYVEEAAK", "apparent Kd (screen)": "1.16 nM"}
